The reader will find reported z-score values listed item by item below.
tested on: NADPH oxidase 5 (Homo sapiens) (UniProt Q96PH1)
Sequence (Q96PH1 whole entry, looked up): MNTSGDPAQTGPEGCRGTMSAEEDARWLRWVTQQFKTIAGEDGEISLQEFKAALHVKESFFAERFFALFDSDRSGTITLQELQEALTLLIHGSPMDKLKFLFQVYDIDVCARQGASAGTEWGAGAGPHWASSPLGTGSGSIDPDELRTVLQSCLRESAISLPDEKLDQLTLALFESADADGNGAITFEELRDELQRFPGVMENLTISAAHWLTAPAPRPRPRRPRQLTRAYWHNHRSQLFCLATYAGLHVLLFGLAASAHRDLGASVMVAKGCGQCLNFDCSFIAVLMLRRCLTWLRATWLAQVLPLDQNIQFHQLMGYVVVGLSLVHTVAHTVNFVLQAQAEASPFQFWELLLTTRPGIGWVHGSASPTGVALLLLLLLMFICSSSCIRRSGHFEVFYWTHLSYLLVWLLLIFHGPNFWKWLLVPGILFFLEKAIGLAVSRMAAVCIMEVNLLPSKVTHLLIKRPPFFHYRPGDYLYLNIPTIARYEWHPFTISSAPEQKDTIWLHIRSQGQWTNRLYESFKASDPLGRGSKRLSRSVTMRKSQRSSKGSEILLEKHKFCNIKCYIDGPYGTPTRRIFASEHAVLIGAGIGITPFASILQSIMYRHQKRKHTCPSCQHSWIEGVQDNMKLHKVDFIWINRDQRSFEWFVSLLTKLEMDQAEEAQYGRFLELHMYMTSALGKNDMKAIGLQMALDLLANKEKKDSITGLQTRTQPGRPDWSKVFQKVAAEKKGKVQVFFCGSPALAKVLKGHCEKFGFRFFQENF
measurement description: NOX5-dependent H2O2 signal modulators, primary screen, NOX inhibitor project, cell-based, HEK293-NOX5, Amplex Red fluorescence (AID 1161)
cond: HEK293-NOX5, ionomycin, 45 min, higher = more signal

Q: Form field: z-score recorded for `C=CC[C@]1(C(=O)NCCCOC)N=C(c2ccc(OCCCO)cc2)O[C@H]1c1ccccc1N=[N+]=[N-]` with NADPH oxidase 5 (Homo sapiens) (UniProt Q96PH1) (enter value)
Ans: -0.678

----------
measurement description: PSAC antagonists in infected red cells, primary screen, cell-based, P. falciparum Indochina, OD700, 1 h (AID 1154)
cond: P. falciparum Indochina infected RBC osmotic lysis, called active from +8 up or from −8 down
Active and inactive are the calls of the source.
Write down the outcome that applies. Available outcomes: true (1) (active), false (0) (inactive)

Q: Assay outcome for `CN(C)C(=O)[C@@]1(Cc2ccccc2)N=C(c2ccc(OCCCO)cc2)O[C@H]1c1ccccc1N=[N+]=[N-]` : what was it?
Ans: true (1)

Q: `O=C1c2ccccc2[C@](Cc2ccccc2I)(C(=O)NC2CC2)[C@H](c2ccc(CO)cc2)N1Cc1ccccc1` , same question.
Ans: false (0)

Q: `CN(C)CCCCCCNC(=O)[C@@H]1C[C@@H]2C(=O)N[C@@H](CCCCN)C(=O)N2[C@@H]1c1cccc(OCCO)c1` , same question.
Ans: false (0)

Q: `COc1ccc([Si](C)(C)[C@@H]2[C@@H](CC(=O)N3Cc4ccccc4C[C@H]3CO)O[C@]3(C(=O)N(C)c4c(Br)cc(C)cc43)[C@H]2C)cc1` , same question.
Ans: true (1)

Q: `CC(C)(C)OC(=O)CC[C@@]1(C(N)=O)N=C(c2ccc(OCCCO)cc2)O[C@@H]1c1ccccc1` , same question.
Ans: false (0)

Q: `COC(=O)[C@@]1(Cc2ccc(OC)cc2)[C@H]2c3cc(C(=O)N4CCCC4)n(Cc4ccccc4)c3C[C@H]2CN1C(=O)c1ccccc1` , same question.
Ans: false (0)

Q: CCOC(=O)[C@H]1CC=C2CC1C(=O)N1CCC[C@@H]1[C@@H]2O[Si](C)(C)C(C)(C)C (some centres not stated) , same question.
Ans: false (0)
